Biological target: T1, recombinant human PD-1 expressed with a C-terminal myc-myc-hexahistidine tag (human)
T1 construct: also called hPD-1-MMH; human PD-1-MMH
T1 sequence (chain, as listed by the source limits assumed): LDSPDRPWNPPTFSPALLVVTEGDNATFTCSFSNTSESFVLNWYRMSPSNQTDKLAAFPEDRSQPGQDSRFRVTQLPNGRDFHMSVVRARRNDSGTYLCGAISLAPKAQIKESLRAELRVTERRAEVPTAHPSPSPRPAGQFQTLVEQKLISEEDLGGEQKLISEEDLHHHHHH
Experiment: SPR (Biacore), mAb captured, hPD-1-MMH injected, 25 C;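 further: rate constants obtained by fitting sensorgrams to a 1:1 binding model, KD derived as kd/ka and half-life as ln2/(60·kd) in minutes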
Each entry below carries its reported pKd.
When answering, recall that pKd equals minus log10 of the concentration in mol/L, and write that number alone.

Worked set:
binder	pKd
H2aM7796N (antibody, mouse IgG2a, V domains shown, Human variable domains, mouse IgG2a Fc; also called H2M7796N) VH: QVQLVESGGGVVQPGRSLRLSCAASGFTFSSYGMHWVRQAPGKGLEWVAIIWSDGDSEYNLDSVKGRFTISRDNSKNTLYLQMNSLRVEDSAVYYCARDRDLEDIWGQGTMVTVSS VL: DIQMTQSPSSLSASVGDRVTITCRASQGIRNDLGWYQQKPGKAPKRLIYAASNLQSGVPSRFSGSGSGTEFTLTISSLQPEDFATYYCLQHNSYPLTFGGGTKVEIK	6.54
H1M7799N (antibody, mouse IgG1, V domains shown, Human variable domains, mouse IgG1 Fc) VH: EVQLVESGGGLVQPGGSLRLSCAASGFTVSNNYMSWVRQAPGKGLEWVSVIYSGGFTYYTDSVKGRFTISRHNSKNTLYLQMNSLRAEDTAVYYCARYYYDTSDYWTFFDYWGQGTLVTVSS VL: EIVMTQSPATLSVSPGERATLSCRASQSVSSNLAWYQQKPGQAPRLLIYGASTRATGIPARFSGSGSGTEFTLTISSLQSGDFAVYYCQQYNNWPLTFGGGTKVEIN	6.61
H1M7800N (antibody, mouse IgG1, V domains shown, Human variable domains, mouse IgG1 Fc) VH: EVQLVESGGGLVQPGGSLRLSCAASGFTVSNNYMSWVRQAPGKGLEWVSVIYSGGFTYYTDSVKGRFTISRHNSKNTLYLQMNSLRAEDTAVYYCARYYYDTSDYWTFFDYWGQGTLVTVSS VL: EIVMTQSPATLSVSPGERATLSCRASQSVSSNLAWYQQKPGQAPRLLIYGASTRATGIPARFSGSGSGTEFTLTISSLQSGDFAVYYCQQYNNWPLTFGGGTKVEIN	6.79
H4H7798N (antibody, human IgG4 S228P, kappa, V domains shown) VH: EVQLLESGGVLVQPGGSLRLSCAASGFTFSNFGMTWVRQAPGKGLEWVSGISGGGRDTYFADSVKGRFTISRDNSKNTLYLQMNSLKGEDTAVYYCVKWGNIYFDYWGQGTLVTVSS VL: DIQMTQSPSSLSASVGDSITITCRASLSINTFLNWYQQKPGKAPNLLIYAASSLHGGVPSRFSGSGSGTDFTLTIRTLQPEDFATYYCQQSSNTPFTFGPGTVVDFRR	8.52

Please look at the following binder next.
Data request: Requested read-out: pKd. Entry: H2aM7780N (antibody, mouse IgG2a, V domains shown, also called H2M7780N) VH: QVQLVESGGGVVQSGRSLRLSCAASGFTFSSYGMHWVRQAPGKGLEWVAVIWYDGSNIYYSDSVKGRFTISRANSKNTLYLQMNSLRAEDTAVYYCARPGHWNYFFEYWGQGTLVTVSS VL: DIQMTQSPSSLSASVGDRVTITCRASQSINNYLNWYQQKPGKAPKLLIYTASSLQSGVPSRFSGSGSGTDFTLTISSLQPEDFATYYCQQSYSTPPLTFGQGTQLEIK
Data returned: 7.41
